The origin of these recorded values is patent US20240327535A1.

- Target System: T1, extracellular domain of rhesus monkey BCMA (rhesus monkey, UniProt F7FFA0 1-53)
- T1 construct: extracellular domain; also called RhBCMA
- T1 sequence (F7FFA0 entry or part of it): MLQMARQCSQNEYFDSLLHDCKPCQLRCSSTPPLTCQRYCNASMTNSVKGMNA
- Method: Octet BLI; Fab 200 nM
Could you please report measured Kd for the items listed next?
One number for each entry, in nM.

1. AB200_Fab + D99Q (Fab, name in Kabat numbering, V domains shown) VH: QVQLVQSGAEVKKPGSSVKVSCKASGGTFSNYWMHWVRQAPGQGLEWMGATYRGHSDTYYNQKFKGRVTITADKSTSTAYMELSSLRSEDTAVYYCARGAIYQGYDVLDNWGQGTLVTVSS VL: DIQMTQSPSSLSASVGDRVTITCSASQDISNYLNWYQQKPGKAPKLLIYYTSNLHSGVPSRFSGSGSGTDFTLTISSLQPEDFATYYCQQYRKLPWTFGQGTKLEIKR :: 7.63

Okay, next one:
For AB200_Fab + D99T (Fab, name in Kabat numbering, V domains shown) VH: QVQLVQSGAEVKKPGSSVKVSCKASGGTFSNYWMHWVRQAPGQGLEWMGATYRGHSDTYYNQKFKGRVTITADKSTSTAYMELSSLRSEDTAVYYCARGAIYTGYDVLDNWGQGTLVTVSS VL: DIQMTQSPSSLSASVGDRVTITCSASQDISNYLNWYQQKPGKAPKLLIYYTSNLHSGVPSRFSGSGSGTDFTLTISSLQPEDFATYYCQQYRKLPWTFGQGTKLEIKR the binder record lists Kd as 11.5
